Target: T1, mouse MAdCAM expressed on cells (mouse, UniProt Q61826 22-405)
T1 construct: whole, on cells
T1 sequence (looked up): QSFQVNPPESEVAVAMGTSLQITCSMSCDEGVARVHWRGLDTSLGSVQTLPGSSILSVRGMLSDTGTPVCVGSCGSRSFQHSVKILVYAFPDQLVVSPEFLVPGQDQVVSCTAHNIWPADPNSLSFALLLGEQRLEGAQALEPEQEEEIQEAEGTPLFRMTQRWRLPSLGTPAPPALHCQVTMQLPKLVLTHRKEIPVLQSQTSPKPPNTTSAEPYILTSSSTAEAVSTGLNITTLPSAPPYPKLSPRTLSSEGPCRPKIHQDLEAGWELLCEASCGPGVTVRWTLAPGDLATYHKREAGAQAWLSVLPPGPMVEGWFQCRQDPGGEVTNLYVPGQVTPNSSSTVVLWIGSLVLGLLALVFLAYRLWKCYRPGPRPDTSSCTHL
Test: cell binding

[
  {
    "BINDER": "MAdCAM antibody Clone ID 75 of Table 7 (IgG) (antibody, V domains shown, IgG format) VH: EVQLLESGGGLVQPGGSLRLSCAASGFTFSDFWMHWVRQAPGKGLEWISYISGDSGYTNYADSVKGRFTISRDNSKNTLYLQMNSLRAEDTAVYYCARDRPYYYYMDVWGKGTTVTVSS VL: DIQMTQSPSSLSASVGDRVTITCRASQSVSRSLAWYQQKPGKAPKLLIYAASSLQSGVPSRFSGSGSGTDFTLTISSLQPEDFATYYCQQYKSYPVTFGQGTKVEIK",
    "binding result": "binds"
  },
  {
    "BINDER": "MAdCAM antibody Clone ID 39 of Table 7 (IgG) (antibody, V domains shown, IgG format) VH: QVQLVQSGAEVKKPGASVKVSCKASGYTFTSYYMHWVRQAPGQGLEWMAWMNPNSGNTGYAQKFQGRVTMTRDTSTSTVYMELSSLRSEDTAVYYCARDYDFWSGSLGYWGQGTLVTVSS VL: DIQMTQSPSSLSASVGDRVTITCRASQGISNYLAWYQQKPGKAPKLLIYAASSLQSGVPSRFSGSGSGTDFTLTISSLQPEDFATYYCQQSYSTPWTFGQGTKVEIK",
    "binding result": "no binding"
  },
  {
    "BINDER": "MAdCAM antibody Clone ID 62 of Table 7 (IgG) (antibody, V domains shown, IgG format) VH: QVQLVQSGAEVKKPGASVKVSCKASGYTFTSYDINWVRQAPGQGLEWMGWINPNSGTTGYAQKFQGRVTMTRDTSTSTVYMELSSLRSEDTAVYYCARSPYYYYGMDVWGQGTTVTVSS VL: DIQMTQSPSSLSASVGDRVTITCRASHFISRWVAWYQQKPGKAPKLLIYAASTLQSGVPSRFSGSGSGTDFTLTISSLQPEDFATYYCQQSYSGISFGPGTKVDIK",
    "binding result": "no binding"
  },
  {
    "BINDER": "MAdCAM antibody Clone ID 24 of Table 7 (IgG) (antibody, V domains shown, IgG format) VH: EVQLVESGGGLVKPGGSLRLSCAASGFTFSSYWMSWVRQAPGKGLEWVSRISSDGRITTYAAPVKGRFTISRDDSKNTLYLQMNSLKTEDTAVYYCARGTSYCTGGVCDIDYWGQGTLVTVSS VL: DIQMTQSPSSLSASVGDRVTITCRASQSIGRNLNWYQQKPGKAPKLLIYSASNLQSGVPSRFSGSGSGTDFTLTISSLQPEDFATYYCQQSYSIPLTFGPGTKVDIK",
    "binding result": "no binding"
  },
  {
    "BINDER": "MAdCAM antibody Clone ID 46 of Table 7 (IgG) (antibody, V domains shown, IgG format) VH: EVQLLESGGGLVQPGGSLRLSCAASGFSFSSYTMNWVRQAPGKGLEWVSFITSSSRTIYYADSVKGRFTISRDNSKNTLYLQMNSLRAEDTAVYYCARDRRGDYGDSWYFDLWGRGTLVTVSS VL: EIVMTQSPATLSVSPGERATLSCRASQSVRNYLAWYQQKPGQAPRLLIYGASTRATGIPARFSGSGSGTEFTLTISSLQSEDFAVYYCQQYGSSPLTFGGGTKVEIK",
    "binding result": "no binding"
  }
]

Cited source: patent US20200392228A1
